# target or test system: mutant form of the human GPR119 receptor (Homo sapiens, UniProt Q8TDV5, S329A/T327A)
# experiment: LANCE cAMP-384 assay in HEK293 cells stably expressing a mutant form of the human GPR119 receptor
# study conditions: cAMP accumulation, GPR119 stable HEK293 cells, LANCE kit, 20 min at 37° C.
pEC50: −log10 of the molar value.
Rule: pEC50 under 7 gives NOT MET, otherwise MET.

compound="CCc1cnc(N2CC[C@@H](N(C(=O)c3cnc(-n4cnc(C)n4)cn3)C3CC3)[C@@H](F)C2)nc1 (single isomer, unassigned) [Example 89]" discrete_label=MET

Would you say Cc1ncnn1-c1ccc(C(=O)N(C2CC2)C2CCN(c3nc(C(C)C)no3)CC2)cn1 [Example 52] shows pEC50 at minimum 7?
NOT MET

Is the recorded value of pEC50 equal to or greater than 7 for this compound? Cc1nccn1-c1cnc(C(=O)N(C2CC2)[C@@H]2CCN(c3ncc(Cl)cn3)C[C@@H]2F)cn1 (single isomer, unassigned) [Example 99]
MET

Determine whether this compound has pEC50 no lower than 7: Cc1nnnn1-c1ccc(C(=O)N(C2CC2)C2CCN(c3nc(C(C)C)no3)CC2)cn1 [Example 57]
NOT MET

Given Cc1nccn1-c1cnc(C(=O)N(C2CC2)C2CCN(c3ncc(Cl)cn3)CC2)cn1 [Example 65] , state whether its pEC50 is at least 7.
NOT MET

Reported pEC50 reaches at least 7 for CCc1cnc(N2CCC(N(C(=O)c3ccc(-n4ccnc4C)nc3)C3CC3)CC2)nc1 [Example 58] ?
NOT MET

----------
# target or test system: human GPR119 (Homo sapiens, UniProt Q8TDV5)
# Construct: expression vector for human GPR119 cDNA (Acc. No. NP_848566)
# Sequence (Q8TDV5 1-335): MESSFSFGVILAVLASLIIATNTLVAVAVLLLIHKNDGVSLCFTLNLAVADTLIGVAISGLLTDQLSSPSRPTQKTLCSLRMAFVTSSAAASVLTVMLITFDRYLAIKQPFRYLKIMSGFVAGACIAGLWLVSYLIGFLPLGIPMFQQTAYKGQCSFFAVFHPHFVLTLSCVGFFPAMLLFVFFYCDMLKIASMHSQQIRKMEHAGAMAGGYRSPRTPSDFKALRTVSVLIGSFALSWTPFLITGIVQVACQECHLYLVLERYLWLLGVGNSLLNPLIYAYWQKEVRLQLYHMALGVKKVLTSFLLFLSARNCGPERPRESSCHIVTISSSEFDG
# experiment: AlphaScreen cAMP assay in MIN6 cells stably transfected with human GPR119
# study conditions: Min-6/hGPR119 cells, 45 minutes incubation at room temperature
Strictly below 60 nM in EC50: yes (1). Otherwise: no (0).

input_smiles=CCc1cnc(N2CCC(N(C(=O)c3ccc(-n4ccnc4)nn3)C3CC3)CC2)nc1 discrete_label="no (0)"
input_smiles=CCCc1noc(N2CCC(N(C(=O)c3ccc(-c4cnco4)nc3)C3CC3)CC2)n1 discrete_label="no (0)"
input_smiles=CC(C)c1noc(N2CCC(N(C(=O)c3cc(-c4ccc(C#N)cc4F)no3)C3CC3)CC2)n1 discrete_label="yes (1)"
input_smiles=Cc1cnc(N2CCC(N(C(=O)c3cnc(-n4ccnc4C)nc3)C3CC3)CC2)cn1 discrete_label="no (0)"
input_smiles=CCCc1noc(N2CCC(N(C(=O)c3cnc(-n4ccnc4)nc3)C3CC3)CC2)n1 discrete_label="no (0)"
input_smiles=CCc1cnc(N2CCC(N(C(=O)c3cnc(-n4ccnc4)nc3)C3CC3)CC2)nc1 discrete_label="yes (1)"
input_smiles=CCc1noc(N2CCC(N(C(=O)c3cnc(-c4ccc(C#N)c(F)c4)nc3)C3CC3)CC2)n1 discrete_label="yes (1)"
input_smiles=CCCc1noc(N2CCC(N(C(=O)c3cnc(-n4ccnc4CC)nc3)C3CC3)CC2)n1 discrete_label="no (0)"

In plain terms, does CCOc1ccc(-c2ncc(C(=O)N(C3CC3)C3CCN(c4ncc(CC)cn4)CC3)cn2)cn1 come in under 60 nM for EC50?
no (0)

Lab log: compare recorded EC50 with 60 nM; is it strictly lower for N#CCc1ccc(-c2ncc(C(=O)N(C3CC3)C3CCN(c4nc(-c5ccccc5)no4)CC3)cn2)cc1 ?
yes (1)

Below 60 nM on EC50? Entry CCc1cnc(N2CCC(N(C(=O)c3cnc(-c4ccc(C#N)c(F)c4)nc3)C3CC3)CC2)nc1
no (0)

----------
# target or test system: human GPR119 (Homo sapiens)
# Construct: expression vector for human GPR119 cDNA (Acc. No. NP_848566)
# experiment: AlphaScreen cAMP assay in MIN6 cells stably transfected with human GPR119
# study conditions: Min-6/hGPR119 cells, 45 minutes incubation at room temperature
# Method: The compounds of formula I according to the invention modulate the activity of the G-protein-coupled receptor GPR119. The effect of the compounds on the activation of GPR119 and on the stimulation of intracellular cAMP concentration is determined using the AlphaScreen cAMP Assay Kit (Cat.No.#6760625R) made by PerkinElmer. MIN6 cells [Miyazaki J et al. Endocrinology. 1990 July; 127(1):126-32] are stably transfected with an expression vector for human GPR119 cDNA (Acc. No. NP_848566). […]
# pEC50 per entry
Expect pEC50 as a plain number equal to -log10 of the molar concentration.

See these solved cases before continuing.
compound="O=C(c1cnc(-n2ccnc2)nc1)N(C1CC1)C1CCN(c2nc(-c3ccccc3)no2)CC1 [Example 1]" target_or_test_system="human GPR119 (Homo sapiens)" endpoint_name=pEC50 number=7.51
compound="CCCc1noc(N2CCC(N(C(=O)c3cnc(-c4ccc(S(C)(=O)=O)cc4)nc3)C3CC3)CC2)n1 [Example 16]" target_or_test_system="human GPR119 (Homo sapiens)" endpoint_name=pEC50 number=6.80
compound="CC(C)c1noc(N2CCC(N(C(=O)c3cnc(-c4cnco4)cn3)C3CC3)CC2)n1 [Example 33]" target_or_test_system="human GPR119 (Homo sapiens)" endpoint_name=pEC50 number=7.60
compound="CCOc1ccc(-c2ncc(C(=O)N(C3CC3)C3CCN(c4nc(-c5ccccc5)no4)CC3)cn2)cn1 [Example 7]" target_or_test_system="human GPR119 (Homo sapiens)" endpoint_name=pEC50 number=7.60

Entry CC(C)(C)c1noc(N2CCC(N(C(=O)c3cc(-c4ccc(C#N)cc4F)no3)C3CC3)CC2)n1 [Example 31] : reported pEC50 = ?
8.22

// query pEC50 value for entry CCOc1ccc(-c2ncc(C(=O)N(C3CC3)C3CCN(c4nc(CC)no4)CC3)cn2)cn1 [Example 10]
7.00

----------
# target or test system: mutant form of the human GPR119 receptor (Homo sapiens, UniProt Q8TDV5, S329A/T327A)
# experiment: LANCE cAMP-384 assay in HEK293 cells stably expressing a mutant form of the human GPR119 receptor
# study conditions: cAMP accumulation, GPR119 stable HEK293 cells, LANCE kit, 20 min at 37° C.
endpoint name: EC50 (nM)
Unit nM implied. Number only.

Known EC50 results, listed for orientation:
molecule="Cc1ncnn1-c1ccc(C(=O)N(C2CC2)[C@@H]2CCN(c3ncc(Cl)cn3)C[C@@H]2F)cn1 (single isomer, unassigned)" number=24
molecule="Cc1ncnn1-c1ccc(C(=O)N(C2CC2)[C@@H]2CCN(c3ccc(C(F)(F)F)cn3)C[C@@H]2F)cn1 (single isomer, unassigned)" number=46
molecule="CCc1cnc(N2CC[C@@H](N(C(=O)c3cn(-c4ccc(S(C)(=O)=O)cc4F)cn3)C3CC3)[C@@H](F)C2)nc1 (single isomer, unassigned)" number=82

Request: EC50, test system mutant form of the human GPR119 receptor (Homo sapiens, UniProt Q8TDV5, S329A/T327A), entry CCc1cnc(N2CCC(N(C(=O)c3cnc(-n4cnc(C)n4)cn3)C3CC3)CC2)nc1
185

Which measured EC50 belongs to CCc1cnc(N2CC[C@@H](N(C(=O)c3cnc(-n4cncn4)cn3)C3CC3)[C@@H](F)C2)nc1 (single isomer, unassigned) [Example 86] , tested on mutant form of the human GPR119 receptor (Homo sapiens, UniProt Q8TDV5, S329A/T327A)?
5

Return EC50 measured with mutant form of the human GPR119 receptor (Homo sapiens, UniProt Q8TDV5, S329A/T327A) given this molecule: CCc1cnc(N2CC[C@@H](N(C(=O)c3cnc(-n4cncn4)nc3)C3CC3)[C@@H](F)C2)nc1 (single isomer, unassigned)
202

What value of EC50 on mutant form of the human GPR119 receptor (Homo sapiens, UniProt Q8TDV5, S329A/T327A) does Cc1nccn1-c1ncc(C(=O)N(C2CC2)[C@H]2CCN(c3ccc(C(F)(F)F)cn3)C[C@H]2F)cn1 (single isomer, unassigned) have?
56

Write down the reported EC50 of Cc1ncnn1-c1ncc(C(=O)N(C2CC2)C2CCN(c3ncc(C(F)(F)F)cc3F)CC2)cn1 , test system: mutant form of the human GPR119 receptor (Homo sapiens, UniProt Q8TDV5, S329A/T327A).
148

Enter reported EC50 observed with mutant form of the human GPR119 receptor (Homo sapiens, UniProt Q8TDV5, S329A/T327A) for CCc1cnc(N2CCC(N(C(=O)c3cn(-c4ccc(C#N)cn4)cn3)C3CC3)CC2)nc1
61

Param readout= EC50; system= mutant form of the human GPR119 receptor (Homo sapiens, UniProt Q8TDV5, S329A/T327A); entry= Cc1nccn1-c1ccc(C(=O)N(C2CC2)[C@@H]2CCN(c3ccc(C(F)(F)F)cn3)C[C@@H]2F)cn1 (single isomer, unassigned) ; returns value.
34

Missing value: EC50, mutant form of the human GPR119 receptor (Homo sapiens, UniProt Q8TDV5, S329A/T327A), entry CCc1cnc(N2CC[C@@H](N(C(=O)c3ccc(-n4ccnc4C)nc3)C3CC3)[C@@H](F)C2)nc1 (single isomer, unassigned) . Fill in?
29

// fetch mutant form of the human GPR119 receptor (Homo sapiens, UniProt Q8TDV5, S329A/T327A) EC50 for O=C(c1cnc(-n2cncn2)cn1)N(C1CC1)C1CCN(c2ncc(C(F)(F)F)cc2F)CC1
78

Ref: patent US8921398B2
